Measured Target: human JMJD5 (Homo sapiens, UniProt Q8N371)
Sequence (Q8N371 whole entry): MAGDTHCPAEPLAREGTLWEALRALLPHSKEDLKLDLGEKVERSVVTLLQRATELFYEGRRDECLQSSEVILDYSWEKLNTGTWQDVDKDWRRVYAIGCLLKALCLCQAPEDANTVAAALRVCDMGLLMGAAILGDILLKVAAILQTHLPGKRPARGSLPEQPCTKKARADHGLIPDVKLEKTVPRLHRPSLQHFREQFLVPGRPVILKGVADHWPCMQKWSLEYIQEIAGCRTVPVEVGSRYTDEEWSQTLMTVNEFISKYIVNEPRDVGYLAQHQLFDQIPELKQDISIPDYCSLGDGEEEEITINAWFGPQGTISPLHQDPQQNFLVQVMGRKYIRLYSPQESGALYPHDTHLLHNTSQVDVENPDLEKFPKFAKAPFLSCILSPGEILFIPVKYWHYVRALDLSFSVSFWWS
Test Description: SPE-MS JMJD5 inhibition assay (hydroxylation of RPS6 128–148 peptide)
Format: biochemical
Measurement Setup: supplementary CSV; read-out: IC50 JMJD5
Item-by-item account of IC50
Endpoint Name: IC50 (µM)

                                    compound  endpoint_name  bound_sign  number
 0  Cc1ccccc1Nc1c(C(=O)O)ccnc1C(=O)O [Compound 26]           IC50           >      50
 1     O=C(O)c1ccncc1NCc1ccccc1 [Compound 4]           IC50           >      50
 2  O=C(O)c1ccnc(C(=O)O)c1F [Compound 13, 3-fluoro-2,4-PDCA]           IC50           =    27.2
 3  O=C(O)c1ccncc1NCCc1ccc(Cl)cc1 [Compound 32]           IC50           >      50
 4  O=C(O)c1ccnc(C(=O)O)c1NCC1CCCCC1 [Compound 5]           IC50           =    25.3
 5  O=C(O)c1ccnc(C(=O)O)c1NCCCCc1ccccc1 [Compound 12]           IC50           =    20.8
 6  O=C(O)c1ccnc(C(=O)O)c1NCCCc1ccccc1 [Compound 11]           IC50           =    19.7
 7  O=C(O)c1ccnc(C(=O)O)c1NCCc1ccc(Cl)cc1 [Compound 31]           IC50           =    10.3
 8  O=C(O)c1ccnc(C(=O)O)c1NCc1ccc(C(F)(F)F)cc1 [Compound 7]           IC50           =    10.4
 9  CCC(Nc1c(C(=O)O)ccnc1C(=O)O)c1ccccc1 (stereo not drawn) [Compound 9]           IC50           =     7.5
10  O=C(O)c1ccnc(C(=O)O)c1Nc1ccccc1F [Compound 25]           IC50           =    46.9
11  Nc1ccccc1Nc1c(C(=O)O)ccnc1C(=O)O [Compound 29]           IC50           =    39.6
12  CSc1ccccc1Nc1c(C(=O)O)ccnc1C(=O)O [Compound 28]           IC50           =    41.5
13  O=C(O)c1ccnc(C(=O)O)c1NCCc1ccccc1 [Compound 10]           IC50           =    19.6
14  O=C(O)c1ccnc(C(=O)O)c1NCc1ccccc1 [Compound 3]           IC50           =     9.5
15  COc1ccccc1Nc1c(C(=O)O)ccnc1C(=O)O [Compound 27]           IC50           =    29.6
16  O=C(O)c1ccnc(C(=O)O)c1Nc1ccccc1[N+](=O)[O-] [Compound 2]           IC50           =    17.9
17  CC(Nc1c(C(=O)O)ccnc1C(=O)O)c1ccccc1 (stereo not drawn) [Compound 8]           IC50           =     3.1
18  O=C(O)c1cc(C(=O)O)c(F)cn1 [Compound 15, 5-fluoro-2,4-PDCA]           IC50           =     4.5
19  O=C(O)c1ccnc(C(=O)O)c1Nc1ccccc1 [Compound 21]           IC50           >      50
20  O=C(O)c1ccnc(C(=O)O)c1Nc1ccc([N+](=O)[O-])cc1 [Compound 23]           IC50           >      50

###

Measured Target: human JMJD5 (Homo sapiens)
Test Description: SPE-MS JMJD5 inhibition assay (hydroxylation of RPS6 128–148 peptide)
Format: biochemical
Measurement Setup: Table 2; JMJD5 […], 2OG 2.0 μM, Fe(II) 2.0 μM, LAA 100 μM, RPS6 128–148 2.0 μM; n = 3, mean ± SD; read-out: IC50 JMJD5
Endpoint Name: IC50 (nM)

>>> df
                                   compound  units_text  number
0  CC(Nc1cnc(C(=O)O)cc1C(=O)O)c1ccccc1 (stereo not shown) [Compound 20e]          nM   17500
1  O=C(O)c1cc(C(=O)O)c(NCCc2ccccc2)cn1 [Compound 20b]          nM     900
2  O=C(O)c1cc(C(=O)O)c(NCCCCc2ccccc2)cn1 [Compound 20d]          nM     400
3  O=C(O)c1cc(C(=O)O)c(NCCCc2ccccc2)cn1 [Compound 20c]          nM     300

###

Item-by-item account of IC50
Measured Target: human JMJD5 (Homo sapiens)
Test Description: SPE-MS JMJD5 inhibition assay (hydroxylation of RPS6 128–148 peptide)
Type: biochemical
Measurement Setup: Supporting Table S1; JMJD5 […], 2OG 2.0 μM, RPS6 128-148 2.0 μM, pH 7.5, 20 °C; n = 3, mean ± SD; read-out: IC50 JMJD5
Endpoint Name: IC50 (µM)

                                   compound  endpoint_name  bound_sign  number
0  CC(Nc1cnccc1C(=O)O)c1ccccc1 (centres unmarked)           IC50           >      50
1          Nc1ccccc1Nc1c(C(=O)O)ccnc1C(=O)O           IC50           =    39.6
2         COc1ccccc1Nc1c(C(=O)O)ccnc1C(=O)O           IC50           =    29.6
3     O=C(O)c1ccnc(C(=O)O)c1NCCc1ccc(Cl)cc1           IC50           =    10.3
4          O=C(O)c1ccnc(C(=O)O)c1Nc1ccccc1F           IC50           =    46.9

###

Measured Target: KDM4E (Homo sapiens, UniProt B2RXH2)
Construct: made in house; host or cells: Escherichia coli
Sequence (B2RXH2 whole entry): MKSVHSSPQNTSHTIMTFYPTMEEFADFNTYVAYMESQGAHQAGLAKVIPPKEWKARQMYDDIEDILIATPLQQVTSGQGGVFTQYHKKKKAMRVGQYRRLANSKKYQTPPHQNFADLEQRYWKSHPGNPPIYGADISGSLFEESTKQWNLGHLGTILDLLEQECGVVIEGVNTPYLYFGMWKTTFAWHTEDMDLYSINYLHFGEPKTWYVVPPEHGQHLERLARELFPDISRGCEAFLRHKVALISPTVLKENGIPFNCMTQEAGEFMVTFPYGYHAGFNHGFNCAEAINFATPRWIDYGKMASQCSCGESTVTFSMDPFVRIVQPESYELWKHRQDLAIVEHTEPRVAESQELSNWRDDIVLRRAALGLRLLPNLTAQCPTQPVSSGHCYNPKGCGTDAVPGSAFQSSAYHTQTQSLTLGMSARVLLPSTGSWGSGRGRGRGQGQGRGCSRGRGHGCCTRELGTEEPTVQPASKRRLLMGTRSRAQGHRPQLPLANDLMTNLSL
Test Description: SPE-MS KDM4E inhibition assay (demethylation of H3 1–15 K9me3)
Type: biochemical
Measurement Setup: Table 2, 10.0 μM H3 1–15 K9me3, n = 2, mean ± SD
pIC50: −log10 of the molar value.
Endpoint Name: pIC50

>>> df
                                   compound                       measured_target  endpoint_name  bound_sign  number
0  COc1ccccc1CNc1cnc(C(=O)O)cc1C(=O)O [Compound 20i]  KDM4E (Homo sapiens, UniProt B2RXH2)          pIC50           =    4.95
1  COc1ccc(CNc2cnc(C(=O)O)cc2C(=O)O)cc1 [Compound 20h]  KDM4E (Homo sapiens, UniProt B2RXH2)          pIC50           =    4.81
2  O=C(O)c1cc(C(=O)O)c(NCCc2ccccc2)cn1 [Compound 20b]  KDM4E (Homo sapiens, UniProt B2RXH2)          pIC50           =    5.23
3  O=C(O)c1cc(C(=O)O)c(NCC2CCCCC2)cn1 [Compound 20f]  KDM4E (Homo sapiens, UniProt B2RXH2)          pIC50           =    5.49
4  O=C(O)c1cc(C(=O)O)c(NCc2ccccc2)cn1 [Compound 20a]  KDM4E (Homo sapiens, UniProt B2RXH2)          pIC50           =    5.49
5  O=C(O)c1cc(C(=O)O)c(NCc2ccccc2C2CC2)cn1 [Compound 20j]  KDM4E (Homo sapiens, UniProt B2RXH2)          pIC50           <    4.30
6  O=C(O)c1cc(C(=O)O)c(NCc2ccc(C(F)(F)F)cc2)cn1 [Compound 20g]  KDM4E (Homo sapiens, UniProt B2RXH2)          pIC50           =    5.21
7  O=C(O)c1cc(C(=O)O)c(NCCCc2ccccc2)cn1 [Compound 20c]  KDM4E (Homo sapiens, UniProt B2RXH2)          pIC50           =    4.55
8  CC(Nc1cnc(C(=O)O)cc1C(=O)O)c1ccccc1 (stereo not shown) [Compound 20e]  KDM4E (Homo sapiens, UniProt B2RXH2)          pIC50           =    4.64
9  O=C(O)c1cc(C(=O)O)c(NCCCCc2ccccc2)cn1 [Compound 20d]  KDM4E (Homo sapiens, UniProt B2RXH2)          pIC50           =    5.44

These measurements were taken from paper PMC10424186.
